src = patent US5837499A

- assay-target: T1, C5a receptor (Homo sapiens, UniProt P21730)
- T1 construct: Neutrophils were purified from human peripheral blood; endogenous in cells; host or cells: neutrophils from human peripheral blood
- T1 sequence (P21730 1-350): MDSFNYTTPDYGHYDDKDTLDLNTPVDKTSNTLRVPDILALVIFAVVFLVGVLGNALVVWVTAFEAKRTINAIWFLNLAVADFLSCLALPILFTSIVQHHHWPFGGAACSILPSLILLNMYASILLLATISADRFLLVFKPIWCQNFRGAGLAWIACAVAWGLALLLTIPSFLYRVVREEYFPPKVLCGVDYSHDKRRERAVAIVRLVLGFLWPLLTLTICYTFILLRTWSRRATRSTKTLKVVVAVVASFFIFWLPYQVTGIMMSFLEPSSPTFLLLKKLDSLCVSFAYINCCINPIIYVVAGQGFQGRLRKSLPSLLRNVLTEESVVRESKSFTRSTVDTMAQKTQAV
- assay: Receptor binding assay: displacement of [125I]Bolton-Hunter-labelled C5a from PMNL membranes
- condition-description: Table 4, [125I]BH-C5a 4.0 pM, 120 min at 4° C., Cheng-Prusoff

[
  {
    "molecule": "C5a(1-71,T1M,C27S) (protein, UniProt P01031 678-748, looked up, fragment T1M C27S, C5a anaphylatoxin, comparison agonist) MLQKKIEEIAAKYKHSVVKKCCYDGASVNNDETCEQRAARISLGPRCIKAFTECCVVASQLRANISHKDMQ",
    "unit-annotation": "nM",
    "Ki": 3
  },
  {
    "molecule": "C5a(1-71,T1M,C27S,Q71H) (protein, UniProt P01031 678-748, looked up, fragment T1M C27S Q71H, C5a anaphylatoxin, comparison agonist) MLQKKIEEIAAKYKHSVVKKCCYDGASVNNDETCEQRAARISLGPRCIKAFTECCVVASQLRANISHKDMH",
    "unit-annotation": "nM",
    "Ki": 0.15
  }
]
